- measured_on: Human immunodeficiency virus type 1 protease (Human immunodeficiency virus 1, UniProt Q72874)
- experimental_protocol: Inhibitory activity against isolated wild-type HIV1 protease
assay_endpoint: pIC50
Numbers only, as −log10 of the molar value.

CC(C)(C)OC(=O)N[C@@H](Cc1ccccc1)[C@@H](O)C[C@]1(Cc2ccccc2)N=CC(C2c3ccccc3[C@H]3NC(=O)OC23)=C1O (stereo not given in full); 8.60
O=C1N[C@@H]2c3ccccc3C(C3=C(O)[C@](Cc4ccccc4)(C[C@H](O)[C@H](Cc4ccccc4)NC(=O)O[C@H]4CCOC4)N=C3)C2O1 (stereo not given in full); 9.36
CC(C)(C)CC(=O)N[C@@H](Cc1ccccc1)[C@@H](O)C[C@]1(Cc2ccccc2)N=CC(C2c3ccccc3[C@H]3NC(=O)OC23)=C1O (stereo not given in full); 7.02

Please look at the following compound next.
### Prompt Tell me pIC50 reported for CC(C)(C)OC(=O)N[C@@H](Cc1ccccc1)[C@@H](O)C[C@]1(Cc2ccccc2)N=CC(C2C[C@H](CC(N)=O)c3ccccc32)=C1O (stereo not given in full)
### Response 7.69

---

- System: Human immunodeficiency virus 1
- experimental_protocol: Antiviral activity in cells infected with wild-type HIV1 4X mutant
- Type: functional
- condition_label: Human immunodeficiency virus 1, 4X; read-out: CIC95
assay_endpoint: IC95
// unit must come after the numeric part

Consider the worked cases shown below.
NC(=O)C[C@H]1CC(C2=C(O)[C@](Cc3ccccc3)(C[C@H](O)[C@H](Cc3ccccc3)NC(=O)O[C@H]3CCOC3)N=C2)c2ccccc21 (stereo not given in full); 0.625 µM
O=C(N[C@@H](Cc1ccccc1)[C@@H](O)C[C@]1(Cc2ccccc2)N=CC([C@H]2c3ccccc3C[C@H]2O)=C1O)O[C@H]1CCOC1; 0.625 µM
CC(C)(C)NC(=O)[C@@H]1CN(Cc2cccnc2)CCN1C[C@@H](O)C[C@@H](Cc1ccccc1)C(=O)N[C@H]1c2ccccc2C[C@H]1O; 0.1 µM
CC(C)(C)OC(=O)N[C@@H](Cc1ccccc1)[C@@H](O)C[C@]1(Cc2ccccc2)N=CC(C2c3ccccc3[C@H]3NC(=O)OC23)=C1O (stereo not given in full); 2.5 µM

Please look at the following compound next.
### Prompt Tell me IC95 reported for O=C1N[C@@H]2c3ccccc3C(C3=C(O)[C@](Cc4ccccc4)(C[C@H](O)[C@H](Cc4ccccc4)NC(=O)O[C@H]4CCOC4)N=C3)C2O1 (stereo not given in full)
### Response 0.156 µM

---

- System: Human immunodeficiency virus 1
- experimental_protocol: Antiviral activity in cells infected with wild-type HIV1 NL4-3 in presence of FBS
- Type: functional
- condition_label: Human immunodeficiency virus 1, NL4-3; read-out: CIC95
Exercise: for every item that follows, state its recorded IC95.
One number for each entry, in nM.

O=C(N[C@@H](Cc1ccccc1)[C@@H](O)C[C@]1(Cc2ccccc2)N=CC([C@H]2c3ccccc3C[C@H]2O)=C1O)O[C@H]1CCOC1; 78
NC(=O)C[C@H]1CC(C2=C(O)[C@](Cc3ccccc3)(C[C@H](O)[C@H](Cc3ccccc3)NC(=O)O[C@H]3CCOC3)N=C2)c2ccccc21 (stereo not given in full); 312
O=C1N[C@@H]2c3ccccc3C(C3=C(O)[C@](Cc4ccccc4)(C[C@H](O)[C@H](Cc4ccccc4)NC(=O)O[C@H]4CCOC4)N=C3)C2O1 (stereo not given in full); 625

Dear reader, for each entry below, please note its IC95.
1. CC(C)(C)NC(=O)[C@@H]1CN(Cc2cccnc2)CCN1C[C@@H](O)C[C@@H](Cc1ccccc1)C(=O)N[C@H]1c2ccccc2C[C@H]1O
2. CC(C)(C)OC(=O)N[C@@H](Cc1ccccc1)[C@@H](O)C[C@]1(Cc2ccccc2)N=CC(C2c3ccccc3[C@H]3NC(=O)OC23)=C1O (stereo not given in full)

### Response
1: 50; 2: 156
